Hey, just so you know, these numbers are from the supplement of paper PMC9694430.

- Tested on: LOC_OS03G12390-cb001;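 further: purified Escherichia coli-expressed rice kinase domain construct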
- Assay Summary: thermal shift delta Tm vs DMSO control; higher = stronger stabilization (binding)
- Experimental Conditions: 12.5 µM; protein concentration 2 µM
Metric Name: thermal shift delta Tm

1. OCCn1cc(-c2ccc3c(c2)CC/C3=N\O)c(-c2ccncc2)n1; 0.53 °C
2. CCCCNc1ncc(C(=O)NCc2ccc(-n3ccnc3)cc2)c(NC2CCC(O)CC2)n1 (stereo not drawn); 2.82 °C
3. Cc1c(CN2CCN(C(=O)[C@H](C)O)CC2)sc2c(N3CCOCC3)nc(-c3cnc(N)nc3)nc12; 0.75 °C
4. CN1c2ccccc2C(=O)Nc2cnc(Nc3ccc(N4CCC(O)CC4)cc3)nc21; 2.56 °C
5. c1cncc(CN2CCC(n3ncc4c(N5CCOCC5)nc(-c5ccc6[nH]ccc6c5)nc43)CC2)c1; -0.05 °C
6. Cc1cc(Nc2ncnc3ccc(-c4ccc(CNCCS(C)(=O)=O)o4)cc23)ccc1Oc1ccn2ncnc2c1; 0.49 °C
7. Cc1c(NC(=O)c2ccc(C(C)(C)C)cc2)cccc1-c1cn(C)c(=O)c(Nc2ccc(C(=O)N3CCOCC3)cc2)n1; 1.85 °C
8. CC1(COc2ccc3c(c2)ncn3-c2ccc3cccc(N4CCC(N)CC4)c3n2)COC1; 1.74 °C
9. CN1CCN(c2ccc3nc(-c4c(N)c5c(F)cccc5[nH]c4=O)[nH]c3c2)CC1 [Dovitinib (TKI258) Lactate]; 5.56 °C
10. O=c1cc(-c2cccc3c2Sc2ccccc2S3)oc(N2CCOCC2)c1; 0.59 °C
11. O=C(Nc1cccc(Nc2ncc(Br)c(NCCc3cnc[nH]3)n2)c1)N1CCCC1; 2.81 °C
12. O=C(Nc1cc(C(F)(F)F)cc(C(F)(F)F)c1)c1cc(Cl)ccc1O; 1.46 °C
13. COc1c(C)c(C(=O)c2ccc(N)c(C(=O)O)c2)n2ccccc12; -0.07 °C
14. Cc1cn(-c2cc(NC(=O)c3ccc(C)c(Nc4nccc(-c5cccnc5)n4)c3)cc(C(F)(F)F)c2)cn1; 0.05 °C
15. Cc1cc(Nc2cc(Cl)nc(Oc3ccc([N+](=O)[O-])cc3)n2)n[nH]1; 0.34 °C
16. CCn1c2ccccc2c2cc(Nc3ccnc(NCCCN4CCOCC4)n3)ccc21; -0.48 °C
17. COCCOc1ccc2c(c1)ncn2-c1ccc2cccc(N3CCC(N)CC3)c2n1; 1.73 °C
18. CN1CCC(CNc2ccc3ncc(-c4cccc(OC(F)(F)F)c4)n3n2)CC1 [SGI-1776 free base]; 0.16 °C
